Each entry below lists one item and its recorded pIC50 value.
# Test system: HCT-116
# assay_info: Cytotoxicity against human HCT116 cells assessed as reduction in cell viability incubated for 24 hrs by MTT assay
# Assay type: functional, cell-based
# measurement_context: HCT-116, 24 h
pIC50: −log10 of the molar value.

substance_smiles | system_under_test | value_relation_sign | pIC50
CCOC(=O)c1cn(Cc2ccccc2)c2cc(Cl)ccc2c1=O | HCT-116 | = | 4.67
CCCCn1cc(C(=O)NCCCN(CC)CC)c(=O)c2ccc(Cl)cc21.Cl | HCT-116 | = | 5.11
CCN(CC)CCCNC(=O)c1cn(C)c2cc(Cl)ccc2c1=O.Cl | HCT-116 | = | 5.01
CCN(CC)CCNC(=O)c1cn(CC)c2cc(Cl)ccc2c1=O.Cl | HCT-116 | = | 4.70
CCOC(=O)c1cn(CC)c2cc(Cl)ccc2c1=O | HCT-116 | < | 4.30
C=CCn1cc(C(=O)NCCN(CC)CC)c(=O)c2ccc(Cl)cc21.Cl | HCT-116 | = | 4.45
C=CCn1cc(C(=O)OCC)c(=O)c2ccc(Cl)cc21 | HCT-116 | < | 4.30
CCCCn1cc(C(=O)NCCN(CC)CC)c(=O)c2ccc(Cl)cc21.Cl | HCT-116 | = | 4.68
CCN(CC)CCCNC(=O)c1cn(Cc2ccccc2)c2cc(Cl)ccc2c1=O.Cl | HCT-116 | = | 5.06
C=CCn1cc(C(=O)NCCCN(CC)CC)c(=O)c2ccc(Cl)cc21.Cl | HCT-116 | = | 4.73
CCN(CC)CCCNC(=O)c1cn(CC)c2cc(Cl)ccc2c1=O.Cl | HCT-116 | = | 5.06

----------
Each entry below lists one item and its recorded IC50 value.
# System: RKO
# assay_info: Cytotoxicity against human RKO cells assessed as reduction in cell viability incubated for 24 hrs by MTT assay
# Format: functional, cell-based

substance_smiles | IC50
CCN(CC)CCNC(=O)c1cn(Cc2ccccc2)c2cc(Cl)ccc2c1=O.Cl | 14.3 µM
CCN(CC)CCCNC(=O)c1cn(Cc2ccccc2)c2cc(Cl)ccc2c1=O.Cl | 7.89 µM
CCN(CC)CCCNC(=O)c1c[nH]c2cc(OC)ccc2c1=O.Cl | 42.5 µM
CCN(CC)CCCNC(=O)c1cn(CC)c2cc(Cl)ccc2c1=O.Cl | 10.2 µM
Oc1ccnc2cc(Cl)ccc12 | > 50 µM
CCN(CC)CCNC(=O)c1cn(C)c2cc(Cl)ccc2c1=O.Cl | 24.6 µM
CCN(CC)CCCNC(=O)c1c[nH]c2cc(Cl)ccc2c1=O.Cl | 25.2 µM
CCOC(=O)c1cn(C)c2cc(Cl)ccc2c1=O | > 50 µM
CCOC(=O)c1cn(Cc2ccccc2)c2cc(Cl)ccc2c1=O | 16.3 µM
CCN(CC)CCNC(=O)c1cn(CC)c2cc(Cl)ccc2c1=O.Cl | 23.4 µM
CCOC(=O)c1cn(CC)c2cc(Cl)ccc2c1=O | > 50 µM

----------
# System: HeLa
# assay_info: Cytotoxicity against human HeLa cells assessed as reduction in cell viability incubated for 24 hrs by MTT assay
# Format: functional, cell-based
pIC50: −log10 of the molar value.

substance_smiles | value_relation_sign | pIC50
CCOC(=O)c1cn(CC)c2cc(Cl)ccc2c1=O | < | 4.30
Oc1ccnc2cc(Cl)ccc12 | < | 4.30
CCOC(=O)c1cn(Cc2ccccc2)c2cc(Cl)ccc2c1=O | = | 4.79
CCN(CC)CCCNC(=O)c1cn(CCCc2ccccc2)c2cc(Cl)ccc2c1=O.Cl | = | 5.45
CCN(CC)CCCNC(=O)c1cn(Cc2ccccc2)c2cc(Cl)ccc2c1=O.Cl | = | 5.31
C=CCn1cc(C(=O)OCC)c(=O)c2ccc(Cl)cc21 | < | 4.30
CCN(CC)CCNC(=O)c1cn(Cc2ccccc2)c2cc(Cl)ccc2c1=O.Cl | = | 5.23
CCN(CC)CCCNC(=O)c1c[nH]c2cc(OC)ccc2c1=O.Cl | = | 4.40
CCCCn1cc(C(=O)NCCCN(CC)CC)c(=O)c2ccc(Cl)cc21.Cl | = | 4.81
CCN(CC)CCCNC(=O)c1c[nH]c2cc(Br)ccc2c1=O.Cl | < | 4.30
C=CCn1cc(C(=O)NCCN(CC)CC)c(=O)c2ccc(Cl)cc21.Cl | = | 4.41

All figures here come from ChEMBL document CHEMBL4190353.
